- ASSAY_SUMMARY: E. coli acrAB mutant growth effects, primary screen, E. coli filamentation inducers, strain DRC39, OD650, 24 h (AID 1178);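 note: growth measured as culture turbidity by optical density at 650 nm; test concentration not given here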
- EXPERIMENTAL_CONTEXT: higher = more signal, called active from +8 up or from −8 down
I'd be grateful if you could share measured z-score for these entries.
Respond with the number and no other words.

Could you tell me which z-score is on file for COCCOC(=O)N1C(=O)[C@@]2(c3cc(C#CC4=CCCCC4)ccc31)[C@H](C(=O)N1CCN(c3ncccn3)CC1)[C@H]1C(=O)O[C@H](c3ccccc3)[C@H](c3ccccc3)N1[C@@H]2c1ccccc1OCCO ?
-0.368

Fill in: z-score of C=CC(CO)NC(=O)OCC1c2ccccc2-c2ccccc21 (centres undefined) is ___
-0.712

Which z-score reading was recorded for the molecule CCCC=C(CCC)[C@@H](NS(=O)(=O)c1ccc(Cl)cc1)c1ccccc1 ?
-0.558

Which z-score value is on record for CC(C)c1ccc(NN2C(C(O)C(C)C)C=CC3C(=O)N(c4ccccc4)C(=O)C32)cc1 (centres undefined) ?
0.0582

# query: z-score of entry CN(C)CCCCNC(=O)[C@H]1C[C@H]2C(=O)N[C@@H](Cc3ccccc3)C(=O)N2[C@H]1c1cccc(OCCO)c1
0.553

Query: z-score; subject: C=CC[C@]1(C(=O)NCc2ccccc2)COC(c2ccc(OCCCO)cc2)=N1
0.729

For CCCC=C(CCC)[C@@H](NC(=O)c1ccco1)c1ccc(C(=O)OC)cc1 , what is its reported z-score?
-0.422

Can you look up the measured z-score of CN1C(=O)[C@]2(CCS(=O)(=O)c3ccccc3)N=C(c3ccc(OCCCO)cc3)O[C@@H]2c2ccccc21 for me?
0.124

Please give the measured z-score for this molecule: COCCOC(=O)N1C(=O)[C@@]2(c3cc(C#CC4(O)CCCCCC4)ccc31)[C@H](C(=O)NC[C@H](O)c1ccccc1)[C@H]1C(=O)O[C@H](c3ccccc3)[C@H](c3ccccc3)N1[C@@H]2c1ccc(O)cc1
0.0468

z-score lookup needed for CC(=O)NCCCC[C@@H]1NC(=O)[C@@H]2C[C@H](C(=O)NCCCCCC[N+](C)(C)C)[C@H](c3ccc(O)cc3)N2C1=O , thanks.
-0.241

Query: z-score; subject: CC(C)[Si](C#CCCCC#N)(O[C@H](c1ccccc1)c1cn([C@H](C)c2ccccc2)nn1)C(C)C
-0.708

Given O=C1OCCC/C=C\[C@H]2OC34C=CCN(Cc5ccccc5)C(=O)[C@H]3N(CCCCCO)C(=O)[C@@H]4C12 (some centres undefined) , state its recorded z-score.
0.691

Any idea what its z-score is? The molecule is C=CCC(OC(C)=O)[C@@H]1[C@@H](N(Cc2cc3ccccc3o2)C(=O)c2cccc3ccccc23)c2cc(OCCCO)ccc2N1C(=O)c1ccc2ccccc2c1 (some centres undefined)
-0.423

Return reported z-score; argument: CCOC(=O)C1=CCC(c2cc3ccccc3[nH]2)N(S(=O)(=O)c2ccccc2[N+](=O)[O-])C1 (centres undefined)
-0.591

Name the reported z-score value associated with the molecule COc1cc(OC)c(C(O)C2C=CC3C(=O)N(c4ccccc4)C(=O)C3N2Nc2ccccc2F)cc1Br (centres undefined)
-0.529

Looking for the measured z-score of C=C(/C(=C/C[C@H](OC(=O)c1ccncc1)c1ccccc1OCCO)c1cc(C(=O)OC)ccc1OC)C(C)C , can you help?
-0.822

Dear colleague, I am looking for the recorded z-score of the following molecule: CCOC(=O)C1=C(C(=O)OCC)N(S(=O)(=O)CC[Si](C)(C)C)[C@H](c2ccccc2)CC1
-0.203

Please look up its z-score: COc1ccc([Si](C)(C)[C@H]2[C@H](CCO)O[C@@]3(C(=O)N(Cc4ccc(N5CCOC5=O)cc4)c4ccccc43)[C@@H]2C)cc1
1.32

Given the entry CCCCC(O)C1C=CC2C(=O)NC(=O)C2N1Nc1ccc(Cl)cc1Cl (centres undefined) , report its measured z-score.
-0.818

---

- ASSAY_SUMMARY: MM1S myeloma cell viability, profiling panel, resazurin fluorescence, basal, 24 h, PK04 Diversity Set (AID 1174);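 note: MM1S multiple myeloma cell line; test concentration not given here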
- EXPERIMENTAL_CONTEXT: higher = more signal, called active from +8 up or from −8 down
Consider the following molecules; for each one, report its z-score.
Number only, no unit.

Dear colleague, I am looking for the recorded z-score of the following molecule: C=CCC(OC(C)=O)[C@@H]1[C@@H](N(Cc2cc3ccccc3o2)C(=O)c2cccc3ccccc23)c2cc(OCCCO)ccc2N1C(=O)c1ccc2ccccc2c1 (stereo not given in full)
-0.581

Need z-score, item COC(=O)[C@]1(CO)N=C(c2ccc(OCCCO)cc2)O[C@@H]1c1ccccc1CN=[N+]=[N-]
-0.529

Suppose we examine the molecule CCOC(=O)C1=CC[C@@H](c2ccccc2Cl)N(S(=O)(=O)c2ccc(C)cc2)[C@H]1c1cccc(OC)c1 ; what z-score value has been reported?
-0.703

For the molecule shown here, CCN(CC)c1ccc(N2CC=CC34O[C@@H]5C=CCOC(=O)[C@@H]5[C@H]3C(=O)N(CCO)[C@@H]4C2=O)cc1 (stereo not given in full) , give the reported z-score.
0.762

Which z-score value is on record for C=CC[C@]1(C(=O)OC)N=C(c2ccc(OCCCO)cc2)O[C@H]1c1ccccc1N=[N+]=[N-] ?
-0.455

What measured z-score goes with O=C1C2C=CC(C(O)c3cccs3)N(Nc3ccccc3)C2C(=O)N1c1ccccc1 (stereo not given) ?
-0.334

Any idea what z-score was measured for O=C1NC(=O)C2C1C=CC(C(O)c1ccc(F)cc1)N2Nc1ccccn1 (stereo not given) ?
-1.28

Can you look up the measured z-score of O=C1N(CCS(=O)(=O)c2ccccc2)c2ccccc2[C@@H]2OC(c3ccc(OCCCO)cc3)=N[C@]12CCS(=O)(=O)c1ccccc1 for me?
-0.0861

Which z-score value belongs to [N-]=[N+]=Nc1ccccc1[C@@H]1OC(c2ccc(OCCCO)cc2)=N[C@]1(Cc1ccccc1)C(N)=O ?
-0.622

Which measured z-score value corresponds to COC(=O)[C@@]1(CCC(=O)OC(C)(C)C)N=C(c2ccc(OCCCO)cc2)O[C@H]1c1ccccc1CN=[N+]=[N-] ?
-1.79

Tell me the measured z-score of COCCOC(=O)N1C(=O)[C@@]2(c3cc(C#CC4=CCCCC4)ccc31)[C@H](c1ccccc1OCCO)N1[C@H](c3ccccc3)[C@H](c3ccccc3)OC(=O)[C@H]1[C@@H]2C(N)=O , please.
-2.78

Requested read-out: z-score. Entry: CCCC=C(CCC)[C@@H](NC(=O)c1ccccc1)c1ccc(C(=O)OC)cc1
0.286

I'd like to know its z-score. The molecule in question is COc1ccc([Si](C)(C)[C@@H]2[C@@H](CC(=O)N(CCO)Cc3ccccc3)O[C@]3(C(=O)N(Cc4ccc(N5CCC5=O)cc4)c4ccccc43)[C@H]2C)cc1
-0.604

Field request: z-score | item: COCCOC(=O)N1C(=O)[C@@]2(c3cc(C#CCCO)ccc31)[C@H](c1ccc(O)cc1)N1[C@H](c3ccccc3)[C@H](c3ccccc3)OC(=O)[C@H]1[C@@H]2C(=O)N1CCc2cc(OC)c(OC)cc2C1
0.202

Given the entry CC(=O)c1ccc(C(O)C2C=CC3C(=O)N(C)C(=O)C3N2NC(=O)OC(C)(C)C)cc1 (stereo not given) , report its measured z-score.
-1.04

Bench note: what z-score did CC(C)C[C@H]1NC(=O)[C@@H](C)NC(=O)[C@@]23C(=O)N[C@@H](Cc4ccccc4)C2[C@H](C)[C@@]2(C)O[C@H]2C3/C=C/C/C=C\CNC1=O (stereo not given in full) show?
0.0814

Could you tell me which z-score is on file for C#CCN=C(N)N ?
0.111

Which z-score value is on record for CC(C)CNC(=O)[C@@H]1c2ccccc2C(=O)N(C(C)C)[C@H]1c1ccc(CO)cc1 ?
0.334

Need z-score, item CCCC=C(CCC)[C@@H](NS(=O)(=O)c1ccc(Cl)cc1)c1ccccc1
0.604

Item under review: COCCCNC(=O)[C@@H]1c2ccccc2C(=O)N(C2CCCCC2)[C@H]1c1ccc(CO)cc1 . Reported z-score?
0.614

---

Assign z-score to each entry below.
- ASSAY_SUMMARY: PSAC antagonists in infected red cells, primary screen, cell-based, P. falciparum Indochina, OD700, 1 h (AID 1154)
- EXPERIMENTAL_CONTEXT: P. falciparum Indochina infected RBC osmotic lysis, higher = more signal, called active from +8 up or from −8 down
Give your answer as a number; write no unit.

Name the recorded z-score for CC1(C)OC[C@@]23C=C(Br)[C@@H](C[C@H]12)[C@@]1(CO1)C3=O .
-0.396

Can you share its z-score? I mean this compound: C=CCN1C(=O)[C@]2(O[C@H](CCO)[C@@H]([Si](C)(C)c3ccc(OC)cc3)[C@@H]2C)c2ccccc21
11.9

Endpoint output: z-score of CCOC(=O)C[C@H]1[C@H](OC(=O)c2cc3ccccc3oc2=O)[C@@H](NC(=O)C2CCCCC2)c2cc(OCCCO)ccc2N1C(=O)Cc1ccc(OC)cc1 . Value?
2.92

Quick check: z-score of COC(=O)[C@H](Cc1ccc(O)cc1)N1CC2=CCCC=C[C@@H]2[C@H]1[C@H](O)Cc1ccccc1 ?
3.23

Given the entry C=C(CCCC)C(=O)CC[C@H](OC(=O)c1cccnc1)c1ccc(CO)o1 , report its measured z-score.
2.21

Which z-score value belongs to NCCCC[C@@H]1NC(=O)[C@H]2C[C@@H](C(=O)NCc3ccc(F)cc3)[C@@H](c3ccc(O)cc3)N2C1=O ?
2.55

Origin of the recorded values: PubChem BioAssay
